System: COLO 205
assay overview: NCI tumour cell line growth inhibition, 48 h
The source made the active and inactive calls. Rule as the data show it: active = GI50 up to about 1.1 µM and inactive = higher.
measurement kind: GI50

[
  {
    "compound": "NS(=O)(=O)c1nnc(NC(=S)NC(=O)Nc2ccc(Cl)c(Cl)c2)s1",
    "endpoint value": "19.5 µM (inactive)"
  },
  {
    "compound": "COc1ccc(-c2c(C(C)=O)c(C)n(C3OC(CO)C(O)C(O)C3O)c(=S)c2C#N)cc1 (stereo not drawn)",
    "endpoint value": "> 100 µM (inactive)"
  }
]

COC(=O)c1c[nH]cc1CCCCc1c[nH]cc1C(=O)OC has a reported GI50 of > 100 µM (inactive)

response.value for O=S(=O)(c1ccccc1)C1(C2(S(=O)(=O)c3ccccc3)CCN=N2)CCN=N1 (stereo not drawn) (field: GI50) = > 100 µM (inactive)

// GI50 value for CCOC(=O)CCC1(C(=O)OC)CCCC1=O (stereo not drawn) : > 100 µM (inactive)
